# TARGET SYSTEM: glucocorticoid receptor (Homo sapiens, UniProt P04150)
# Construct: endogenous in cells
# Sequence (P04150 whole entry): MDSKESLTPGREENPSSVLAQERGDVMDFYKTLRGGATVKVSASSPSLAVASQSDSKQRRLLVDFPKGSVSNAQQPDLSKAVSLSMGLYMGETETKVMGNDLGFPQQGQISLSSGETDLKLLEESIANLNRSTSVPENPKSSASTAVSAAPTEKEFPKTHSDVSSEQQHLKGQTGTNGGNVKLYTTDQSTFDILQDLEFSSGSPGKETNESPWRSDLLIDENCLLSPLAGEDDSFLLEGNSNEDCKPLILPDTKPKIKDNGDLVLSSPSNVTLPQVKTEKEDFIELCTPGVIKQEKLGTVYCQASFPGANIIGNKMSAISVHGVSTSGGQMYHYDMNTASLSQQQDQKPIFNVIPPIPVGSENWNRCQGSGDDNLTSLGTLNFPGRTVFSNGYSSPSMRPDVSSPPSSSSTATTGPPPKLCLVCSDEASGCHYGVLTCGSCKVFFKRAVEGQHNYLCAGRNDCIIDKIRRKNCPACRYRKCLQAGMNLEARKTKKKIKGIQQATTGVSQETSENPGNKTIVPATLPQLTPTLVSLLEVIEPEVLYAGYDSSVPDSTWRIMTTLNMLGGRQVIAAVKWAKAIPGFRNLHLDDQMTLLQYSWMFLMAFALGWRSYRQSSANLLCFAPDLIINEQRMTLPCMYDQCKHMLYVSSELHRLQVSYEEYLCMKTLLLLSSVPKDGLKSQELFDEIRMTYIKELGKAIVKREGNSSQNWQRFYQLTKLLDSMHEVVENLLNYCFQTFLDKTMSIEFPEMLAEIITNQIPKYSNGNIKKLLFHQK
# EXPERIMENT: HepG2 Tyrosine Aminotransferase (TAT) Assay
Listed below: Ki values for each entry.

As a guide, the following entries are already answered.
MOLECULE | EXPERIMENTAL ENDPOINT | TEST VALUE
CCn1nccc1S(=O)(=O)N1CC[C@H]2Cc3c(cnn3-c3ccc(F)cc3)C[C@]2(C(=O)c2cc(C(F)(F)F)ccn2)C1 [Example 2L] | Ki | 20 to 100 nM
CCCn1cc(S(=O)(=O)N2CC[C@H]3Cc4c(cnn4-c4ccc(F)cc4)C[C@]3(C(=O)c3cc(C(F)(F)F)ccn3)C2)cn1 [Example 2D] | Ki | < 20 nM

Now for a further molecule.
Form field Ki for item CCCn1ncc(S(=O)(=O)N2CC[C@H]3Cc4c(cnn4-c4ccc(F)cc4)C[C@]3(C(=O)c3cscn3)C2)n1 [Example 2S] on glucocorticoid receptor (Homo sapiens, UniProt P04150): 20 to 100 nM
